The reported measurements were obtained from paper PMC3121759.

Study Target: GlyT-1 (Rattus norvegicus, UniProt P28572)
Construct: the tissues of whole brains or each specific brain region were homogenized; from tissue; host or cells: rat brain (whole brain or dissected regions; male Crl:CD (SD) rats)
Sequence (P28572 whole entry): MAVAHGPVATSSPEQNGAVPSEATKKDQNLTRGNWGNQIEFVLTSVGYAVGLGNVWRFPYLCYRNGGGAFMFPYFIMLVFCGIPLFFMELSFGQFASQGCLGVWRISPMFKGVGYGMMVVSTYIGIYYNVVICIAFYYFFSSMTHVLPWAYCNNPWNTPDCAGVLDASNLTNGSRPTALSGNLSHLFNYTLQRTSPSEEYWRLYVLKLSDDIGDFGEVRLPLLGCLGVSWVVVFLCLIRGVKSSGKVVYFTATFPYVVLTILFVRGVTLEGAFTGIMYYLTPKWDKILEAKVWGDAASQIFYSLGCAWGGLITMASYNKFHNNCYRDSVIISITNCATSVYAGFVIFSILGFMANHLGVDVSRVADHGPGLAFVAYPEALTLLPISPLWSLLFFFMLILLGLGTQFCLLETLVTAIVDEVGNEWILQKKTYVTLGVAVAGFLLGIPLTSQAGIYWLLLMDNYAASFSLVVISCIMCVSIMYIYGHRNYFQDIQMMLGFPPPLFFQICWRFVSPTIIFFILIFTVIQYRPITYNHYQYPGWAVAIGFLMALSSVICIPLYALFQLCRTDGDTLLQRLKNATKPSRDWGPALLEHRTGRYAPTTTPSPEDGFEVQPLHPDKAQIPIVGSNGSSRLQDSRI
Assay Info: Inhibition of [14C]glycine uptake in rat brain membranes
Format: biochemical
What IC50 was measured for each of the following?
Give just the numeric value; nM need not be written.

Request: Look up IC50 of O=C(N[C@@H](c1ccccc1)[C@@H]1CCCCN1)c1cccc(C(F)(F)F)c1Cl [SSR504734] and report it.
Result: 84.5

Request: Look up IC50 of CNCC(=O)O [Sarcosine, sarcosine] and report it.
Result: 414000

Request: Look up IC50 of O=C(N[C@@H](c1ccsc1)[C@H]1CCCCN1)c1nccc(C(F)(F)F)c1Cl [Desmethyl-CHIBA-3007] and report it.
Result: 187

Request: Look up IC50 of CN(CCC(Oc1ccc(-c2ccccc2)cc1)c1ccc(F)cc1)CC(=O)O (stereo not shown) [NFPS/ALX5407] and report it.
Result: 83.7

Request: Look up IC50 of CN(CC[C@@H](Oc1ccc(C(F)(F)F)cc1)c1ccccc1)CC(=O)O (racemic) [Org24598] and report it.
Result: 653

Request: Look up IC50 of CN(CCOc1ccc(-c2ccc3c(c2)OCO3)cc1C(C)(C)C)CC(=O)O [LY2365109] and report it.
Result: 1350

Request: Look up IC50 of CN1CCCC[C@@H]1[C@@H](NC(=O)c1nccc(C(F)(F)F)c1Cl)c1ccsc1 [CHIBA-3007] and report it.
Result: 21.4
